Molecular target: T1, human EphA7 (Homo sapiens, UniProt Q15375)
T1 construct: a protein of the extracellular region of each human Eph receptor fused with the SEAP protein and the His tag; made in house; host or cells: Expi293F cells (culture supernatant)
T1 sequence (Q15375 28-555 limits assumed): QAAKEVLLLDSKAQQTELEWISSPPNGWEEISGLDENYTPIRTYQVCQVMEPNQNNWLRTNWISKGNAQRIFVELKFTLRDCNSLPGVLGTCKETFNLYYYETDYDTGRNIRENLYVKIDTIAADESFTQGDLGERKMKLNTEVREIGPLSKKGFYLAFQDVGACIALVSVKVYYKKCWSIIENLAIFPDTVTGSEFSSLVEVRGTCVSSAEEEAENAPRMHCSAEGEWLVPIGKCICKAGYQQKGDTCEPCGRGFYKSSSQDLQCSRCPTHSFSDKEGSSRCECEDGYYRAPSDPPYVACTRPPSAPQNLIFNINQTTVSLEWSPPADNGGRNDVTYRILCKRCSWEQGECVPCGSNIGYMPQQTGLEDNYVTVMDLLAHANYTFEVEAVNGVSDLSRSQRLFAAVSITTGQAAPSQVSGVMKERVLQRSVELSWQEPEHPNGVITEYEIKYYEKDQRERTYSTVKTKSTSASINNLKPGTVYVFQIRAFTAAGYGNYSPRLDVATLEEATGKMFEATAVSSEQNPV
Test: Selectivity ELISA of humanized antibodies for human Eph receptor
Assay type: binding
Conditions: coated protein 1 nM
readoutKind: hEphA7-SEAP-: absorbance at 450 nm, percentage with respect to hEphA4-SEAP-His as 100% (%)
// units = %; emit number, no label

| molecule | testResult |
| --- | --- |
| 134 (antibody, V domains shown, synthetic humanized antibody heavy chain variable region sequence; synthetic humanized antibody light chain variable region sequence) VH: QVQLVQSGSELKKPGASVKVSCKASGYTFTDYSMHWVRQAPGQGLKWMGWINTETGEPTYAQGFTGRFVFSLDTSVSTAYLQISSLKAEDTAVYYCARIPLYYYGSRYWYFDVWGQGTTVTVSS VL: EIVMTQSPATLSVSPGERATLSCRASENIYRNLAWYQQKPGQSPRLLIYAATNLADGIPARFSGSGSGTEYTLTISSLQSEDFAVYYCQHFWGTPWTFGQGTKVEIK | 5.1 |

Q: Name the reported hEphA7-SEAP-: absorbance at 450 nm, percentage with respect to hEphA4-SEAP-His as 100% value associated with the molecule 156 (antibody, V domains shown, synthetic humanized antibody heavy chain variable region sequence; synthetic humanized antibody light chain variable region sequence) VH: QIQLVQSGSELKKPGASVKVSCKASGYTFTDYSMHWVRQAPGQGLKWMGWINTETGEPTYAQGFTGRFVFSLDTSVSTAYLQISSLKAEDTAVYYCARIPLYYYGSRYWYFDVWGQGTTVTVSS VL: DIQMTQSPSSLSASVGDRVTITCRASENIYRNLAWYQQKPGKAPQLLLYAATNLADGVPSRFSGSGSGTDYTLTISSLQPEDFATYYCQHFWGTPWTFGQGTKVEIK
A: 5.6
